- systemUnderTest: T1, LINGO-Fc (human, UniProt Q96FE5 40-538, limits assumed)
- T1 construct: not shown: Fc part
- T1 sequence: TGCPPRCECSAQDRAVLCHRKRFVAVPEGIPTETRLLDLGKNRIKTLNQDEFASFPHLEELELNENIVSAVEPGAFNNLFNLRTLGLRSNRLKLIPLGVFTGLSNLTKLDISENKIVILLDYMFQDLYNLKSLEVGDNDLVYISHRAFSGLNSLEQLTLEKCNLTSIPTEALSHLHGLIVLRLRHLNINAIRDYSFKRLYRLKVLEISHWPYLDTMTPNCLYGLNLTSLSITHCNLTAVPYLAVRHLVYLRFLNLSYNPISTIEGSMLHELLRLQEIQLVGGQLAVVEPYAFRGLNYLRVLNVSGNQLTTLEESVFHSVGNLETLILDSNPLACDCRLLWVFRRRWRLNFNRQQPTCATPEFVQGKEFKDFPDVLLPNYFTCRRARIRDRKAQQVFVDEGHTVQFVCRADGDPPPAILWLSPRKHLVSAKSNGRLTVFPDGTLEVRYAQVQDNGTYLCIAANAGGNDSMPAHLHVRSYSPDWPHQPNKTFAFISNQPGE
- protocol: direct ELISA on LINGO-Fc; OD450 at saturation relative to Li33;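 note: binding to plate-coated LINGO-Fc read by OD450, with the value at maximal saturation divided by the corresponding Li33 value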
measure: Plateau Ratio (ratio)
# unit: ratio | format: bare number

Solved entries (count: 2):
Li33 variant W104I (SEQ ID NO:179) (antibody, V domains shown, unchanged chain from WT Li33) VH: EVQLLESGGGLVQPGGSLRLSCAASGFTFSIYPMFWVRQAPGKGLEWVSWIGPSGGITKYADSVKGRFTISRDNSKNTLYLQMNSLRAEDTATYYCAREGHNDIYFDLWGRGTLVTVSS VL: DIQMTQSPGTLSLSPGERATLSCRASQSVSSYLAWYQQKPGQAPRLLIYDASNRATGIPARFSGSGSGTEFTLTISSLQSEDFAVYYCQQYDKWPLTFGGGTKVEIKR | 0.62
Li33 variant W50D (SEQ ID NO:175) (antibody, V domains shown, unchanged chain from WT Li33) VH: EVQLLESGGGLVQPGGSLRLSCAASGFTFSIYPMFWVRQAPGKGLEWVSDIGPSGGITKYADSVKGRFTISRDNSKNTLYLQMNSLRAEDTATYYCAREGHNDWYFDLWGRGTLVTVSS VL: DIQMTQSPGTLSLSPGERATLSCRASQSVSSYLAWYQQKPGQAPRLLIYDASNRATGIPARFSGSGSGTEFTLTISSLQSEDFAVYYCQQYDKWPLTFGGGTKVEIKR | 0.71

# evaluate next
So for Li33 variant W104H (SEQ ID NO:156) (antibody, V domains shown, unchanged chain from WT Li33) VH: EVQLLESGGGLVQPGGSLRLSCAASGFTFSIYPMFWVRQAPGKGLEWVSWIGPSGGITKYADSVKGRFTISRDNSKNTLYLQMNSLRAEDTATYYCAREGHNDHYFDLWGRGTLVTVSS VL: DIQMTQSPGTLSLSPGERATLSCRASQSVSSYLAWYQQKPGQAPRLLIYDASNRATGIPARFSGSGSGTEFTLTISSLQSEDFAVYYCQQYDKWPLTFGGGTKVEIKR , the logged Plateau Ratio turned out to be 0.91

Hello, the source for this data is patent US20130323786A1, in case you need it.
